Hey, just so you know, these numbers are from ChEMBL document CHEMBL3627607.

- Measurement Description: Tmax in Plasmodium falciparum 3D7 infected in non-myelodepleted NOD-SCID IL2Rgammanull mouse engrafted with human erythrocytes at 10 mg/kg, po
- Assay type: ADME, organism-based
- Run Conditions: in vivo
Some molecules, each annotated with its measured Tmax.

{"Molecule": "C[S+]([O-])c1ccc(-c2cnn3ccc(-c4cccc(S(=O)(=O)C5CC5)c4)cc23)cc1 (configuration not stated)", "Tmax, h": 2}
{"Molecule": "CS(=O)(=O)c1ccc(-c2cnn3ccc(-c4cccc(S(=O)(=O)C5CC5)c4)cc23)cc1", "Tmax, h": 4}

====

- Assay System: Voltage-gated inwardly rectifying potassium channel KCNH2 (Homo sapiens, UniProt Q12809)
- Sequence (Q12809 whole entry): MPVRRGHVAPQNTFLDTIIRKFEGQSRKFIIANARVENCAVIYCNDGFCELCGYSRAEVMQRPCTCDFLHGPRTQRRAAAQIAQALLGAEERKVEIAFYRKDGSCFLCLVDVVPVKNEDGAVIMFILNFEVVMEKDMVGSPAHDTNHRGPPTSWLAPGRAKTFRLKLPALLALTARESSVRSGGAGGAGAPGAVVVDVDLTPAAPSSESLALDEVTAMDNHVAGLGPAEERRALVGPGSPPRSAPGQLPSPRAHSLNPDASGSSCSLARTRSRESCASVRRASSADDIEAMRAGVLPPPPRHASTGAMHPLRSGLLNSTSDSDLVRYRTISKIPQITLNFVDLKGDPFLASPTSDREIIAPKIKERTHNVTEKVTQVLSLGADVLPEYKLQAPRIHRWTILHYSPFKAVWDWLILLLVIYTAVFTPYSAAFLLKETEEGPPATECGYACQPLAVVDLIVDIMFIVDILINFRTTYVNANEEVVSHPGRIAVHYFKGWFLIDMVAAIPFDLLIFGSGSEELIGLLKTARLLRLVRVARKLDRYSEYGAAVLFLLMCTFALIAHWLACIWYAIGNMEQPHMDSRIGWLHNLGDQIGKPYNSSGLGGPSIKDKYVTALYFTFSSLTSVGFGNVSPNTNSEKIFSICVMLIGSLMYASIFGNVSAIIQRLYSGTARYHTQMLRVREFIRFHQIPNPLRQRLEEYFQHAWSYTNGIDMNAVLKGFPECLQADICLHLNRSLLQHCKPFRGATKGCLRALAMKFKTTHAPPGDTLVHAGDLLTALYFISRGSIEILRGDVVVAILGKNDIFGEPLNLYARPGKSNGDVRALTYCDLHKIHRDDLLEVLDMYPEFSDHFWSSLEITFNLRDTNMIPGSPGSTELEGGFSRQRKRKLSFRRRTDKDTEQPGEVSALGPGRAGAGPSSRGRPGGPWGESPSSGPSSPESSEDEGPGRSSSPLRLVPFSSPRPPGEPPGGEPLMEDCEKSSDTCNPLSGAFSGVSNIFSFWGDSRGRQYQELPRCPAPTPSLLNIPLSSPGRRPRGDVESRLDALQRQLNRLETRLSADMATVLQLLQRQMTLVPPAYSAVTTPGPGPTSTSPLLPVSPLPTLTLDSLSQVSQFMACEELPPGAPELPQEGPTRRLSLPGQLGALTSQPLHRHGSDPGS
- Measurement Description: Inhibition of human ERG potassium channel by ionworks patch-clamp electrophysiology assay

{"Compound": "CS(=O)(=O)c1ccc(-c2cnc3ccc(-c4cccc(S(C)(=O)=O)c4)nn23)cc1", "Result Operator": "=", "IC50 / µM": 0.9}
{"Compound": "CS(=O)(=O)c1ccc(-c2cnn3ccc(-c4cccc(S(C)(=O)=O)c4)cc23)cc1", "Result Operator": ">", "IC50 / µM": 33}
{"Compound": "CS(=O)(=O)c1ccc(-c2cnc3ccc(-c4cccc(S(C)(=O)=O)c4)cn23)cc1", "Result Operator": "=", "IC50 / µM": 4.8}

====

- Measurement Description: Half life in rat at 3 mg/kg, iv
- Format: ADME, organism-based
- Run Conditions: in vivo

{"Compound": "CS(=O)(=O)c1ccc(-c2cnn3ccc(-c4cccc(S(=O)(=O)C5CC5)c4)cc23)cc1", "Endpoint Unit": "h", "half-life": 2.7}

====

- Measurement Description: Oral bioavailability in rat at 20 mg/kg
- Type: ADME, organism-based
- Run Conditions: in vivo

{"Compound": "CS(=O)(=O)c1ccc(-c2cnn3ccc(-c4cccc(S(=O)(=O)C5CC5)c4)nc23)cc1", "Endpoint Unit": "%", "bioavailability": 1}
{"Compound": "CS(=O)(=O)c1ccc(-c2cnc3ccc(-c4cccc(S(=O)(=O)C5CC5)c4)cn23)cc1", "Endpoint Unit": "%", "bioavailability": 51}

====

- Measurement Description: AUC (0 to 23 hrs) in Plasmodium falciparum 3D7 infected in non-myelodepleted NOD-SCID IL2Rgammanull mouse engrafted with human erythrocytes at 0.5 mg/kg, po
- Format: ADME, organism-based
- Parameters: time < 23 hr, dose 0.5 mg/kg, route oral
- Run Conditions: in vivo

{"Compound": "CS(=O)(=O)c1ccc(-c2cnn3ccc(-c4cccc(S(=O)(=O)C5CC5)c4)cc23)cc1", "AUC(0-t) at 23 h (ng·h/mL)": 1010}

====

- Measurement Description: AUC (0 to 8 hrs) in Plasmodium falciparum 3D7 infected in non-myelodepleted NOD-SCID IL2Rgammanull mouse engrafted with human erythrocytes at 1.5 mg/kg, po
- Assay type: ADME, organism-based
- Set-up: dose 1.5 mg/kg, time < 8 hr, route oral
- Run Conditions: in vivo
Endpoint: AUC(0-t) at 8 h (µg·h/mL)

{"Molecule": "C[S+]([O-])c1ccc(-c2cnn3ccc(-c4cccc(S(=O)(=O)C5CC5)c4)cc23)cc1 (stereo unspecified)", "Endpoint": "AUC(0-t) at 8 h", "Endpoint Unit": "µg·h/mL", "Observed Measurement": 0.0405}

====

- Measurement Description: Drug level in mouse blood at 50 mg/kg, po after 24 hrs
- Type: ADME, organism-based
- Run Conditions: blood, read-out: Drug uptake
Endpoint: concentration at 24 h (nM)

{"Compound": "CS(=O)(=O)c1ccc(-c2cnn3ccc(-c4cccc(S(C)(=O)=O)c4)cc23)cc1", "Result Operator": "=", "Observed Measurement": 290}
{"Compound": "CS(=O)(=O)c1ccc(-c2cnn3ccc(-c4cccc(S(=O)(=O)C5CC5)c4)nc23)cc1", "Result Operator": "<", "Observed Measurement": 10}
{"Compound": "C[S+]([O-])c1ccc(-c2cnn3ccc(-c4cccc(S(=O)(=O)C5CC5)c4)cc23)cc1 (stereo not drawn)", "Result Operator": "=", "Observed Measurement": 30}

====

- Measurement Description: Half life in rat at 5 mg/kg, iv
- Format: ADME, organism-based
- Run Conditions: in vivo

{"Compound": "CS(=O)(=O)c1ccc(-c2cnc3ccc(-c4cccc(S(=O)(=O)C5CC5)c4)cn23)cc1", "half-life / h": 3}
{"Compound": "CS(=O)(=O)c1ccc(-c2cnn3ccc(-c4cccc(S(=O)(=O)C5CC5)c4)nc23)cc1", "half-life / h": 2.8}
{"Compound": "CS(=O)(=O)c1ccc(-c2cnn3ccc(-c4cccc(S(C)(=O)=O)c4)cc23)cc1", "half-life / h": 4.1}

====

- Measurement Description: AUC (0 to 23 hrs) in Plasmodium falciparum 3D7 infected in non-myelodepleted NOD-SCID IL2Rgammanull mouse engrafted with human erythrocytes at 30 mg/kg, po
- Type: ADME, organism-based
- Set-up: dose 30 mg/kg, time < 23 hr, route oral
- Run Conditions: in vivo
Endpoint: AUC(0-t) at 23 h

{"Compound": "C[S+]([O-])c1ccc(-c2cnn3ccc(-c4cccc(S(=O)(=O)C5CC5)c4)cc23)cc1 (configuration not stated)", "Observed Measurement": "1240 ng·h/mL"}
{"Compound": "CS(=O)(=O)c1ccc(-c2cnn3ccc(-c4cccc(S(=O)(=O)C5CC5)c4)cc23)cc1", "Observed Measurement": "78300 ng·h/mL"}

====

- Measurement Description: Drug level in mouse blood at 50 mg/kg, po after 1 hr
- Type: ADME, organism-based
- Run Conditions: read-out: Drug uptake
Kindly return YES if reported concentration at 1 h is no lower than 3000 nM; return NO if it is lower.

{"Molecule": "CS(=O)(=O)c1ccc(-c2cnn3ccc(-c4cccc(S(C)(=O)=O)c4)cc23)cc1", "Group Label": "YES"}
{"Molecule": "CS(=O)(=O)c1ccc(-c2cnn3ccc(-c4cccc(S(=O)(=O)C5CC5)c4)cc23)cc1", "Group Label": "NO"}
{"Molecule": "CS(=O)(=O)c1ccc(-c2cnn3ccc(-c4cccc(S(=O)(=O)C5CC5)c4)nc23)cc1", "Group Label": "NO"}
{"Molecule": "CS(=O)(=O)c1ccc(-c2cnn3c2NC(c2cccc(S(=O)(=O)C4CC4)c2)CC3)cc1 (stereo not given)", "Group Label": "NO"}

====

- Measurement Description: AUC (0 to 8 hrs) in Plasmodium falciparum 3D7 infected in non-myelodepleted NOD-SCID IL2Rgammanull mouse engrafted with human erythrocytes at 10 mg/kg, po
- Assay type: ADME, organism-based
- Design: time < 8 hr, dose 10 mg/kg, route oral
- Run Conditions: in vivo

{"Compound": "C[S+]([O-])c1ccc(-c2cnn3ccc(-c4cccc(S(=O)(=O)C5CC5)c4)cc23)cc1 (stereo unspecified)", "AUC(0-t) at 8 h": "293 ng·h/mL"}

====

- Measurement Description: AUC (0 to 23 hrs) in Plasmodium falciparum 3D7 infected in non-myelodepleted NOD-SCID IL2Rgammanull mouse engrafted with human erythrocytes at 1.5 mg/kg, po
- Format: ADME, organism-based
- Set-up: time < 23 hr, dose 1.5 mg/kg, route oral
- Run Conditions: in vivo
Endpoint: AUC(0-t) at 23 h (ng·h/mL)

{"Compound": "CS(=O)(=O)c1ccc(-c2cnn3ccc(-c4cccc(S(=O)(=O)C5CC5)c4)cc23)cc1", "Endpoint Unit": "ng·h/mL", "Observed Measurement": 3200}

====

- Test system: Plasmodium falciparum
- Measurement Description: Antiplasmodial activity against multidrug resistant Plasmodium falciparum K1 infected in human erythrocytes after 48 hrs by [3H]-hypoxanthine incorporation assay
- Format: functional, organism-based
pIC50: −log10 of the molar value.
Reported pIC50 is given for each of the following molecules.

{"Compound": "CS(=O)(=O)c1ccc(-c2cnc3ccc(-c4cccc(S(=O)(=O)C5CC5)c4)cn23)cc1", "Assay System": "Plasmodium falciparum", "Result Operator": "=", "pIC50": 7.42}
{"Compound": "CS(=O)(=O)c1ccc(-c2cnn3ccc(-c4cccc(S(=O)(=O)C5CC5)c4)nc23)cc1", "Assay System": "Plasmodium falciparum", "Result Operator": "=", "pIC50": 9.43}
{"Compound": "CS(=O)(=O)c1ccc(-c2cnn3ccc(-c4cccc(S(C)(=O)=O)c4)nc23)cc1", "Assay System": "Plasmodium falciparum", "Result Operator": "=", "pIC50": 8.66}
{"Compound": "CS(=O)(=O)c1ccc(-c2nnc3ccc(-c4cccc(C(F)(F)F)c4)cn23)cc1", "Assay System": "Plasmodium falciparum", "Result Operator": "<", "pIC50": 6.00}

====

- Measurement Description: Volume of distribution in rat at 3 mg/kg, iv
- Assay type: ADME, organism-based
- Run Conditions: in vivo

{"Compound": "CS(=O)(=O)c1ccc(-c2cnn3ccc(-c4cccc(S(=O)(=O)C5CC5)c4)cc23)cc1", "Endpoint Unit": "L/kg", "Vd": 0.8}
